Test: chemical genetic growth profiling, strain panel (AID 1159580);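 further: tested at 20 µM; growth read once vehicle control cultures reached saturation at 30 °C; 1 = growth at the plate median or of vehicle wells; lower values mean less growth of the strain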
Conditions: S. cerevisiae deletion strains, growth OD, locus YDR502C, strain sam2, hits give low values
Screen size: about 5,500 compounds; about 2,000 (36%) were called active. Not shown: some 18% with an inconclusive outcome. Some of the results follow.
Response field label takes 1.0 when normalized growth is strictly below 1 and 0.0 in all other cases.

[[record]]
compound = "CC(=O)OCC(=O)[C@@]1(O)CCC2C3CCC4=CC(=O)CC[C@]4(C)C3C(=O)C[C@@]21C (some centres undefined)"
assigned_label = 0.0


Next, consider the following compound.
Item "COc1ccc2c(C)cc(=O)oc2c1" : normalized growth beneath 1, strictly?
0.0

----------
Experiment: chemical genetic growth profiling, strain panel (AID 1159580);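 further: tested at 20 µM; growth read once vehicle control cultures reached saturation at 30 °C; 1 = growth at the plate median or of vehicle wells; lower values mean less growth of the strain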
Settings: S. cerevisiae deletion strains, growth OD, locus YKL085W, strain MDH1
The campaign covered roughly 5,500 compounds. About 2,000 (36%) were called active. Inconclusive results (about 18%) are left out. Cut-off read from the data, not from the text of the source: active = normalized growth mostly below about 0.91 (no sharp cut-off); inconclusive = no clear call, values can overlap the other calls; inactive = mostly above about 0.92. The list shows a part of the results.
API: response.call in true (active), false (inactive)

[[record]]
compound = "c1cncc(C2CCCCN2)c1 (stereo not given)"
assigned_label = "false"

[[record]]
compound = "C[C@]12CC(=O)C3C(CC[C@@H]4C[C@H](O)CC[C@]34C)C1CC[C@]2(O)C(=O)CO (stereo not given in full)"
assigned_label = "false"

[[record]]
compound = "CS(=O)(=O)c1ccc(C2=C(c3ccccc3)C(=O)OC2)cc1"
assigned_label = "false"

[[record]]
compound = "CNC(C)[C@H](O)c1ccccc1 (stereo not given in full)"
assigned_label = "false"


Answer briefly: the call reported for "CC(=O)OC(C)(C)[C@@H]1Cc2cc3ccc(=O)oc3cc2O1" in this assay.
false

Answer briefly: the call reported for OCCN1C[C@@H](O)[C@@H](O)C(O)C1CO (stereo not given in full) in this assay.
false

Answer briefly: the call reported for CC(=O)OCC(=O)[C@@]1(O)CCC2C3CCC4=CC(=O)CC[C@]4(C)C3C(=O)C[C@@]21C (stereo not given in full) in this assay.
false

Answer briefly: the call reported for "COc1cc(NS(=O)(=O)c2ccc(N)cc2)nc(OC)n1" in this assay.
false

Answer briefly: the call reported for CC(=O)OCC(=O)[C@H]1CCC2C3CCC4=CC(=O)CC[C@]4(C)C3CC[C@@]21C (stereo not given in full) in this assay.
false

----------
Test: chemical genetic growth profiling, strain panel (AID 1159580);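 further: tested at 20 µM; growth read once vehicle control cultures reached saturation at 30 °C; 1 = growth at the plate median or of vehicle wells; lower values mean less growth of the strain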
Conditions: S. cerevisiae deletion strains, growth OD, locus YMR205C, strain PFK2, hits give low values
Hit rate of the full screen: of about 5,500 compounds, about 2,000 (36%) were called active. Not shown: some 18% with an inconclusive outcome. This is one part of the list.
Response field label takes YES when normalized growth is strictly below 0.9 and NO in all other cases.

Previously resolved entries follow.
[[record]]
molecule = "C[C@]12CCC(=O)C=C1CCC1C2CC[C@@]2(C)C1CC[C@@H]2O (stereo not given in full)"
assigned_label = "NO"

[[record]]
molecule = "COc1ccc2c(c1)OCc1c-2oc2cc(OC)ccc12"
assigned_label = "YES"

[[record]]
molecule = "COc1cc(O)c(C(=O)/C=C/c2ccc(O)c(OC)c2)c(OC)c1"
assigned_label = "NO"

[[record]]
molecule = "Oc1cc(Cl)ccc1Oc1ccc(Cl)cc1Cl"
assigned_label = "YES"


Item "CCC(=O)O[C@H]1[C@H](O[C@@H]2[C@@H](C)[C@H](O[C@H]3C[C@@](C)(OC)[C@@H](O)[C@H](C)O3)[C@@H](C)C(=O)O[C@H](CC)[C@@](C)(O)[C@H](O)[C@@H](C)C(=O)[C@H](C)C[C@@]2(C)O)O[C@H](C)C[C@@H]1N(C)C" : normalized growth beneath 0.9, strictly?
YES

Item "COc1cc2c(cc1OC)Cc1cc(OC)c(OC)cc1Cc1cc(OC)c(OC)cc1C2" : normalized growth beneath 0.9, strictly?
NO

Item "COc1cc2c(cc1OC)C(=O)OC2" : normalized growth beneath 0.9, strictly?
NO

Item "COC1=C(OC)C(=O)C(C/C=C(\C)CC/C=C(\C)CC/C=C(\C)CC/C=C(/C)CC/C=C(\C)CC/C=C(\C)CC/C=C(\C)CC/C=C(\C)CC/C=C(\C)CCC=C(C)C)=C(C)C1=O" : normalized growth beneath 0.9, strictly?
NO
